# Tested on: SN12C renal
# Assay explanation: NCI-60 one-dose screen, 48 h (100 = growth as untreated, 0 = no growth, -100 = all killed)
# Reported conditions: 10 µM
# Method: Growth inhibition of the SN12C human tumor cell line is measured as a screen for anti-cancer activity. Cells are grown in 96 well plates and exposed to the test compound for 48 hours. Compounds are tested at a single concentration, which is 10^-5 M for most compounds. The reported endpoint is percent growth (GI% or GIPRCNT), where numbers from 0 - 100% represent growth inhibition, and numbers from -100% - 0 represent cell death. For example, a value of 40 represents 60% growth inhibition. […]
The panel holds about 83,000 compounds, 20% with a hit somewhere; the sample as a whole holds those more often.
Assign growth to each entry below.
Your answer is read as %, so omit the unit and give the number.

Record lookup: for SN12C renal, what growth belongs to C/C(=C\CC/C=C(\C)CC/C=C(\C)CC[C@@H](O)C(C)(C)O)CC/C=C(\C)CC[C@@H](O)C(C)(C)O ? 12

Same read-out for CN1CCN(c2ccc(C(=O)/C=C/c3cc(C(F)(F)F)ccc3Cl)cc2)CC1 ? -90.1

Same read-out for Cc1cc(C)nc(SCC(=O)Nc2ccc(S(N)(=O)=O)cc2)n1 ? 105

Same read-out for COc1ccc(Nc2nc(N)n(Cc3cccc(Br)c3)n2)cc1 ? 14.7

Same read-out for O=C1Nc2ccc(F)cc2/C1=C/c1cccc(OCc2ccccn2)c1 ? 9.51

Same read-out for O=S(=O)(c1ccc(Cl)cc1)c1nc(-c2ccccc2)oc1S(=O)(=O)c1ccc(Cl)cc1 ? 89.5

Same read-out for O=C(CSc1nnc(-c2c[nH]c3ccccc23)n1-c1ccccc1)Nc1ccc(C(=O)/C=C/c2ccc(Br)cc2)cc1 ? 89.5

Same read-out for O=C(c1ccc(Cl)cc1)C1[C@H](c2ccccc2Br)[C@@H](c2ccccc2)NC12C(=O)Nc1ccc(Br)cc12 (some centres not stated) ? -63.5

Same read-out for COc1ccc2nc(Cl)c(-c3cc(-c4ccccc4)nc(=O)[nH]3)cc2c1 ? 42.9

Same read-out for C=C1CCC2C3(C)COC(c4c(F)cccc4F)OC3CCC2(C)C1C/C=C1/C(=O)OCC1O (configuration not stated) ? -24.1

Same read-out for COc1ccc(/C=N/N=C(\C)c2ccc3c(c2)Nc2ccccc2S3)cc1O ? 70.1

Same read-out for COc1cccc(C(N)=Nc2ccc(OCCCCCCn3cncn3)cc2)c1 ? 30.2
